// values below are reported IC50
Molecular target: Androgen receptor (Homo sapiens)
Sequence (P10275 whole entry): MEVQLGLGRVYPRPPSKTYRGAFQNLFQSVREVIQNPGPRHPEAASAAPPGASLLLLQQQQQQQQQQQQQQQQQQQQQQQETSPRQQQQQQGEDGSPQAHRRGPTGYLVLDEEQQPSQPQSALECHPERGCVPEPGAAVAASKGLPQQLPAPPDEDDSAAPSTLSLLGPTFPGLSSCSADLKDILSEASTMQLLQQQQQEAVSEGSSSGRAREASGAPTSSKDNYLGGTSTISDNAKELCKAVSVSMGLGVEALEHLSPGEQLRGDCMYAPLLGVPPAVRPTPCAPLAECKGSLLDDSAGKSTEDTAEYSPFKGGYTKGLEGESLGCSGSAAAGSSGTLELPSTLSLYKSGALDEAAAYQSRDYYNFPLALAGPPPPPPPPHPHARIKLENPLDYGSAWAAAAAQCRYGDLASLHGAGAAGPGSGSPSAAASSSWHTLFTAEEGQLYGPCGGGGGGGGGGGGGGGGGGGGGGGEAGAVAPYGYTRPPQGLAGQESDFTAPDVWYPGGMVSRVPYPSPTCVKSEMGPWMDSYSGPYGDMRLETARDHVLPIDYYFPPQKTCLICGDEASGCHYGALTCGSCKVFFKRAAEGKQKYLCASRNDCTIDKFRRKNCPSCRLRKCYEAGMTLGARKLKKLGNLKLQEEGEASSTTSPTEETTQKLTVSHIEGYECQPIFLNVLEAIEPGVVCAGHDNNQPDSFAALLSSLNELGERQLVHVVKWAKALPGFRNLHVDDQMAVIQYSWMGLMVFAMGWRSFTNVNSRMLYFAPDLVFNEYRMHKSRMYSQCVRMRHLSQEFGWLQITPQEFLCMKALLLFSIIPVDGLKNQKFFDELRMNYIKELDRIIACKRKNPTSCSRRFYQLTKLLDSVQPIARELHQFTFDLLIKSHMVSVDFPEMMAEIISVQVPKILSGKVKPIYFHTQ
Experiment: Modulation of AR in human LNCAP cells transfected with PSA reporter gene assessed as inhibition of R1881-induced PSA luciferase activity pretreated for 1 hr followed by R1881 addition and measured after 24 hrs by luciferase assay
Numbers only; they are read as nM.

- cpd_smiles: "CC(C)S(=O)(=O)Nc1nc(COc2ccc(C(C)(C)c3cc(Cl)c(OCCCl)c(C#N)c3)cc2)co1"
  IC50, nM: 500

Okay, next one:
Log: Androgen receptor (Homo sapiens), compound CC(C)(c1ccc(OCc2ccnc(NS(C)(=O)=O)n2)cc1)c1cc(F)c(OCCCl)c(Cl)c1 , IC50 = 500

====

Target: Androgen receptor (Homo sapiens)
Sequence (P10275 whole entry): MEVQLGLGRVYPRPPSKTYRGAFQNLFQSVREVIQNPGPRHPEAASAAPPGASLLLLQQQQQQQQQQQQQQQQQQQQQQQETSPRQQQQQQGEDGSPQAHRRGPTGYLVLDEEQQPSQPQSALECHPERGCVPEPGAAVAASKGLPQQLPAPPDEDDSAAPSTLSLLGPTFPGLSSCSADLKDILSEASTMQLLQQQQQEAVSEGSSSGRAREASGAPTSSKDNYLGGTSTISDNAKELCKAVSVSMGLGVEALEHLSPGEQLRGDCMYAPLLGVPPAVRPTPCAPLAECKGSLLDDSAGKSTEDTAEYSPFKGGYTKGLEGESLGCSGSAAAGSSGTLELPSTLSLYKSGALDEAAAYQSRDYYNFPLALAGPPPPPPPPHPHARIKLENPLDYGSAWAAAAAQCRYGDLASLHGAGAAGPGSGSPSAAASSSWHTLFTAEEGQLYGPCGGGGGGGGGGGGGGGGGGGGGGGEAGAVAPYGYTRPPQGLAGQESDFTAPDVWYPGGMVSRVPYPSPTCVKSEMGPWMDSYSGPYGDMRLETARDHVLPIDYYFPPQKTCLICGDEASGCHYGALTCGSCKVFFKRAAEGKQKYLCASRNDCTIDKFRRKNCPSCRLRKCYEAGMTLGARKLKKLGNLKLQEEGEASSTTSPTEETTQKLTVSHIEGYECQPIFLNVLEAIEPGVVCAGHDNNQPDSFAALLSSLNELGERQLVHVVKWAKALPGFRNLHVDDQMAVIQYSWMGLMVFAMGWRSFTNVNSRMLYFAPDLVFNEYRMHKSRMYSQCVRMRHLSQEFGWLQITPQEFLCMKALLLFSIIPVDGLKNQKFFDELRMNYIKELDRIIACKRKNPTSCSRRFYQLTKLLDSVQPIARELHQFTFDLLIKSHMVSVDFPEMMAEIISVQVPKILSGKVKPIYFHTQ
Test: Modulation of AR in human LNCAP cells transfected with PSA reporter gene assessed as inhibition of R1881-induced PSA luciferase activity pretreated for 1 hr followed by R1881 addition and measured after 24 hrs by luciferase assay
// values below are reported IC50

- cpd_smiles: "CC(C)S(=O)(=O)c1nc(COc2ccc(C(C)(C)c3cc(Cl)c(OCCCl)c(C#N)c3)cc2)co1"
  reported: "< 500 nM"
- cpd_smiles: "CC(C)(c1ccc(OCc2cnc(Cl)o2)cc1)c1cc(Cl)c(OCCCl)c(C#N)c1"
  reported: "< 500 nM"

IC50 measured on CC(C)(c1ccc(OCc2nc(NS(C)(=O)=O)cs2)cc1)c1cc(Cl)c(OCCCl)c(C#N)c1 = < 500 nM
